- system.tested: AM2 S31 (wild-type serine at position 31 in the M2 protein), influenza virus A/Udorn/72 (Influenza A virus, UniProt P0DOF5)
- Sequence (P0DOF5 whole entry, looked up): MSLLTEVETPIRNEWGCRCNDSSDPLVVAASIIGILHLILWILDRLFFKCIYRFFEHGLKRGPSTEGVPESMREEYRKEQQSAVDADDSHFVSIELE
- method.notes: cell-based
- test.parameters: 100 uM; Xenopus oocytes; activity range class; read-out: S31 OOcyte Inhibition at 100 uM (%)
Reported inhibition at 100 µM values are given for each entry in this list.
endpoint.label: inhibition at 100 µM

INSERT INTO measurements (molecule, endpoint_label, assay_result) VALUES
  ('Brc1ccc(CNC23CC4CC(CC(C4)C2)C3)nc1 [Example 54a]', 'inhibition at 100 µM', '31 to 95%'),
  ('c1csc(-c2csc(CNC34CC5CC(CC(C5)C3)C4)c2)c1 [Example 140a]', 'inhibition at 100 µM', '0 to 30%'),
  ('c1csc(-c2nc(CNC34CC5CC(CC(C5)C3)C4)no2)c1 [Example 146a]', 'inhibition at 100 µM', '0 to 30%'),
  ('CCOc1ccc(CNC23CC4CC(CC(C4)C2)C3)cc1', 'inhibition at 100 µM', '0 to 30%'),
  ('OC1CCC(CNC23CC4CC(CC(C4)C2)C3)CC1 (centres unmarked) [Example 170a]', 'inhibition at 100 µM', '0 to 30%');

====

Reported inhibition at 100 µM values are given for each entry in this list.
- system.tested: AM2 S31 (wild-type serine at position 31 in the M2 protein), influenza virus A/Udorn/72 (Influenza A virus)
- method.notes: cell-based
- test.parameters: Table 1; 100 uM; Xenopus oocytes, pH 5.5, -20 mV; read-out: S31 OOcyte Inhibition at 100 uM (%)
endpoint.label: inhibition at 100 µM

INSERT INTO measurements (compound, endpoint_label, assay_result) VALUES
  ('Oc1ccc(CNC23CC4CC(CC(C4)C2)C3)c(Cl)c1', 'inhibition at 100 µM', '31 to 95%'),
  ('CC(NC1C2CC3CC(C2)CC1C3)c1ccc(O)cc1O (centres unmarked)', 'inhibition at 100 µM', '31 to 95%'),
  ('Oc1ccc(/C=N/C23CC4CC(CC(C4)C2)C3)cc1', 'inhibition at 100 µM', '31 to 95%'),
  ('NCc1ccc(CNC23CC4CC(CC(C4)C2)C3)cc1', 'inhibition at 100 µM', '0 to 30%'),
  ('COc1cc(CNC23CC4CC(CC(C4)C2)C3)ccc1O', 'inhibition at 100 µM', '31 to 95%'),
  ('OCC(Cc1cnc[nH]1)NCC12CC3CC(CC(C3)C1)C2 (centres unmarked)', 'inhibition at 100 µM', '0 to 30%'),
  ('Nc1ncc(CNC23CC4CC(CC(C4)C2)C3)cn1', 'inhibition at 100 µM', '31 to 95%'),
  ('Oc1c(F)c(F)c(CNC23CC4CC(CC(C4)C2)C3)c(F)c1F', 'inhibition at 100 µM', '0 to 30%'),
  ('c1csc(-c2ccc(CNC34CC5CC(CC(C5)C3)C4)cc2)c1', 'inhibition at 100 µM', '0 to 30%'),
  ('Oc1ccc(CNC23CC4CC(CC(C4)C2)C3)c(O)c1O', 'inhibition at 100 µM', '0 to 30%'),
  ('Oc1ccc(CN2CCC3(CCCCC3)CC2)c(O)c1', 'inhibition at 100 µM', '31 to 95%'),
  ('Cc1cc(CNC23CC4CC(CC(C4)C2)C3)ccc1O', 'inhibition at 100 µM', '31 to 95%'),
  ('c1cn(-c2ccc(CNC34CC5CC(CC(C5)C3)C4)cc2)cn1', 'inhibition at 100 µM', '0 to 30%'),
  ('Oc1cc(O)c(CNC23CC4CC(CC(C4)C2)C3)c(O)c1', 'inhibition at 100 µM', '0 to 30%'),
  ('COc1ccc(CNC23CC4CC(CC(C4)C2)C3)c(OC)c1', 'inhibition at 100 µM', '0 to 30%'),
  ('[O-][n+]1ccc(CNC23CC4CC(CC(C4)C2)C3)cc1', 'inhibition at 100 µM', '0 to 30%'),
  ('O=[N+]([O-])c1cc(CNC23CC4CC(CC(C4)C2)C3)ccc1O', 'inhibition at 100 µM', '31 to 95%'),
  ('c1ncc(CCNCC23CC4CC(CC(C4)C2)C3)[nH]1', 'inhibition at 100 µM', '0 to 30%'),
  ('Oc1ccc(CNC23CC4CC(CC(C4)C2)C3)cc1O', 'inhibition at 100 µM', '31 to 95%'),
  ('CCOc1ccc(CNC23CC4CC(CC(C4)C2)C3)cc1', 'inhibition at 100 µM', '0 to 30%');

Where do the numbers come from? From patent US9884832B2.
